Value source: PubChem BioAssay (EPA / NIEHS)

assay: APR_HepG2_P-H2AX_24hr: Apredica 24-hour HepG2 Assay for H2AX Phosphorylation (AID 2282920); details: high-content imaging, actives raise or lower the signal
Calls of active or inactive are those of the source. The calls were made as follows: active = hit-call score of the fitted dose curve at least 0.9, where 1 is the maximum; inactive = score below 0.9.
Give one outcome, nothing more. List: true (1) (active), false (0) (inactive)

Worked examples, 5 molecules total:
CCCN(CCC)C(=O)SCC    false (0)
c1ccc2[nH]c(-c3cscn3)nc2c1    false (0)
CCOC(=O)NCCOc1ccc(Oc2ccccc2)cc1    false (0)
CCNc1nc(N)nc(Cl)n1    false (0)
OB(O)O    false (0)

Attention now turns to another entry.
Q: Call for entry Cc1nn(C)c(Oc2ccccc2)c1C=NOCc1ccc(C(=O)OC(C)(C)C)cc1 :
Result: false (0)
